Recorded values, source PubChem BioAssay AID2060885.

- System: NCI-H23 complex spheroids with HUVEC/MSC, viability
- experimentSummary: Anticancer human tumor NCI-H23 cell line growth inhibition [RAS];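 further: spheroids exposed to compound for 7 days; 100% = DMSO vehicle control viability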
- assayConditions: second compound 0.00949 µM; first compound 10 µM; active compounds read low
- Source text: RAS pathway inhibitors in Combinations in Complex Spheroids A high-throughput screen of multi-cell type tumor spheroids was designed to identify active combinations of RAS pathway inhibitors and targeted small molecules. Complex spheroids include a stromal component modeled by human endothelial cells (HUVEC) and fibroblasts modeled by human mesenchymal stem cells (MSCs). […] Compounds. […] If the clinical Cmax for an agent had not been determined, the highest concentration tested was 10 microM. […]
For each of the compounds below, state its viability, T/C.
# output: bare number, implied unit %

Problem: Would you kindly share the measured viability, T/C for CC(C)NCC(C(=O)N1CCN(c2ncnc3c2C(C)CC3O)CC1)c1ccc(Cl)cc1 (stereo not drawn) + CCn1c(-c2cc(N3CCN(C)CC3)cnc2C(C)OC)c2c3cc(ccc31)-c1csc(n1)CC(NC(=O)C1CC1C)C(=O)N1CCCC(N1)C(=O)OCC(C)(C)C2 ?
Solution: 10.4

Problem: Would you kindly share the measured viability, T/C for CC(=O)OC12COC1CC(O)C1(C)C(=O)C(O)C3=C(C)C(OC(=O)C(O)C(NC(=O)OC(C)(C)C)c4ccccc4)CC(O)(C(OC(=O)c4ccccc4)C21)C3(C)C (stereo not drawn) + CCn1c(-c2cccnc2C(C)OC)c2c3cc(ccc31)N1CCOC(CC(NC(=O)C(C(C)C)N(C)C(=O)C3(F)CCN(C(=O)C#CC(C)(C)N(C)C)CC3)C(=O)N3CCCC(N3)C(=O)OCC(C)(C)C2)C1 ?
Solution: 15.8

Problem: Would you kindly share the measured viability, T/C for NC1c2ccccc2OC12CCN(c1cnc3c(N4CCCc5ncccc54)n[nH]c3n1)CC2 (stereo not drawn) + CCn1c(-c2cccnc2C(C)OC)c2c3cc(ccc31)N1CCOC(CC(NC(=O)C(C(C)C)N(C)C(=O)C3(F)CCN(C(=O)C#CC(C)(C)N(C)C)CC3)C(=O)N3CCCC(N3)C(=O)OCC(C)(C)C2)C1 ?
Solution: 5.23

---

- System: NCI-H23 complex spheroids with HUVEC/MSC, viability
- experimentSummary: Anticancer human tumor NCI-H23 cell line growth inhibition [RAS];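 further: spheroids exposed to compound for 7 days; 100% = DMSO vehicle control viability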
- assayConditions: second compound 0.316 µM; first compound 0.01 µM; active compounds read low
resultType: viability, T/C (%)
# output: bare number, implied unit %

Problem: Which measured viability, T/C belongs to CC(C)n1nc(-c2ccc3oc(N)nc3c2)c2c(N)ncnc21 + C=CC(=O)N1CCN(c2nc(OCC3CCCN3C)nc3c(F)c(-c4nc(N)cc(C)c4C(F)(F)F)c(Cl)cc23)C(C)C1 , tested on NCI-H23 complex spheroids with HUVEC/MSC, viability?
Solution: 22.3

Problem: Which measured viability, T/C belongs to O=C(c1ccc(F)c(F)c1Nc1ccc(I)cc1F)N1CC(O)([C@@H]2CCCCN2)C1 + C#Cc1c(F)ccc2cc(O)cc(-c3ncc4c(N5CC6CCC(C5)N6)nc(OCC56CCCN5CC(F)C6)nc4c3F)c12 , tested on NCI-H23 complex spheroids with HUVEC/MSC, viability?
Solution: 112

Problem: Which measured viability, T/C belongs to C=CC(=O)Nc1cc(Nc2nccc(-c3cn(C)c4ccccc34)n2)c(OC)cc1N(C)CCN(C)C + C#Cc1c(F)ccc2cc(O)cc(-c3ncc4c(N5CC6CCC(C5)N6)nc(OCC56CCCN5CC(F)C6)nc4c3F)c12 , tested on NCI-H23 complex spheroids with HUVEC/MSC, viability?
Solution: 122

Problem: Which measured viability, T/C belongs to C=CC(=O)Nc1cc(Nc2nccc(-c3cn(C)c4ccccc34)n2)c(OC)cc1N(C)CCN(C)C + C=CC(=O)N1CCN(c2nc(OCC3CCCN3C)nc3c(F)c(-c4nc(N)cc(C)c4C(F)(F)F)c(Cl)cc23)C(C)C1 , tested on NCI-H23 complex spheroids with HUVEC/MSC, viability?
Solution: 43

Problem: Which measured viability, T/C belongs to CC(C)n1nc(-c2ccc3oc(N)nc3c2)c2c(N)ncnc21 + C#Cc1c(F)ccc2cc(O)cc(-c3ncc4c(N5CC6CCC(C5)N6)nc(OCC56CCCN5CC(F)C6)nc4c3F)c12 , tested on NCI-H23 complex spheroids with HUVEC/MSC, viability?
Solution: 61.6

Problem: Which measured viability, T/C belongs to CCN1CCN(Cc2ccc(Nc3ncc(F)c(-c4cc(F)c5nc(C)n(C(C)C)c5c4)n3)nc2)CC1 + C=CC(=O)N1CCN(c2nc(OCC3CCCN3C)nc3c(F)c(-c4nc(N)cc(C)c4C(F)(F)F)c(Cl)cc23)C(C)C1 , tested on NCI-H23 complex spheroids with HUVEC/MSC, viability?
Solution: 31.7
